# SYSTEM NAME: Mannose-6-phosphate isomerase (Homo sapiens) (UniProt P34949)
# Sequence (P34949 whole entry, looked up): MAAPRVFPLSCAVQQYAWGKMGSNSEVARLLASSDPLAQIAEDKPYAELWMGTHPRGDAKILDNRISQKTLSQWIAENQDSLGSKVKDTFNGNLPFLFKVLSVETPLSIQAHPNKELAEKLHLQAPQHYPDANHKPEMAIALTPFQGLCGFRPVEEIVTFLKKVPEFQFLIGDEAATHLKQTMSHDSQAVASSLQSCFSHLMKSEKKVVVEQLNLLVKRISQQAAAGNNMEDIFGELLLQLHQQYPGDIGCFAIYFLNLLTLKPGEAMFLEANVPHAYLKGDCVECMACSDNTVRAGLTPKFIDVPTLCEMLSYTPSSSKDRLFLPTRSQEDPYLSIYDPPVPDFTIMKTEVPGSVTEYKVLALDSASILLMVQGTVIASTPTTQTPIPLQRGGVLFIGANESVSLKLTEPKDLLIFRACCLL
# PROTOCOL NOTES: inhibitors of human PMI, primary screen, biochemical, fluorescence intensity, coupled assay (AID 1209);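 further: plate controls were DMSO vehicle for no effect and wells lacking substrate for full effect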
# CONDITION INFO: purified PMI enzyme, at 20 µM, hits give high values
In all, about 190,000 compounds went through this assay and about 810 (0.43%) were called active. This is one part of a sample in which actives are shown more often than they occur.
PROPERTY LABEL: inhibition (%)
Response body: numeric value in %, unit text excluded.

>  <COMPOUND>
Cc1ccccc1NC(=S)Nc1cccc2cnccc12

>  <inhibition (%)>
60.5

$$$$
>  <COMPOUND>
CCOc1ccc(CCNC(=O)COC(=O)c2cccc(OC)c2O)cc1OCC

>  <inhibition (%)>
5.3

$$$$
>  <COMPOUND>
O=C(CSc1n[nH]c(-c2cccs2)n1)N1CCN(S(=O)(=O)c2ccccc2)CC1

>  <inhibition (%)>
8.5

$$$$
>  <COMPOUND>
Cc1ccccc1-n1nnnc1SCc1ncc(-c2ccccc2)o1

>  <inhibition (%)>
5.3

$$$$
>  <COMPOUND>
Cc1ccc(C)c(NC(=S)Nc2cccc3cnccc23)c1

>  <inhibition (%)>
50.3

$$$$

Hey, Mannose-6-phosphate isomerase (Homo sapiens) (UniProt P34949) data for N#CC1=C(N)Oc2n[nH]c(-c3cccs3)c2C1C1C=CCCC1 (centres undefined) : inhibition came out at 2.1

Hey, Mannose-6-phosphate isomerase (Homo sapiens) (UniProt P34949) data for CCOC(=O)c1oc2ccccc2c1NC(=O)CN1CCOCC1 : inhibition came out at -0.8

Hey, Mannose-6-phosphate isomerase (Homo sapiens) (UniProt P34949) data for Cn1ccnc1SCC(=O)c1c[nH]c2ccccc12 : inhibition came out at 4.5

Hey, Mannose-6-phosphate isomerase (Homo sapiens) (UniProt P34949) data for COc1cc(O)c(NC(C)=O)c2nonc12 : inhibition came out at 64.6

Hey, Mannose-6-phosphate isomerase (Homo sapiens) (UniProt P34949) data for CCOc1ccc(-c2nnc(-c3ccccc3)o2)cc1 : inhibition came out at -0.3

----------
Recorded inhibition by entry
# SYSTEM NAME: Mannose-6-phosphate isomerase (Homo sapiens) (UniProt P34949)
# PROTOCOL NOTES: inhibitors of human PMI, primary screen, biochemical, fluorescence intensity, coupled assay (AID 1209);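 further: plate controls were DMSO vehicle for no effect and wells lacking substrate for full effect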
# CONDITION INFO: purified PMI enzyme, at 20 µM, hits give high values
About 810 (0.43%) of roughly 190,000 compounds were called active. Many of the other results were omitted from the sample, so actives are more common in it than they were.
Response body: numeric value in %, unit text excluded.

For orientation, consider the following solved cases.
>  <COMPOUND>
O=C(c1cc(Cl)ccc1[N+](=O)[O-])N1CCc2ccccc2C1

>  <UNIT TAG>
%

>  <inhibition>
7.8

$$$$
>  <COMPOUND>
Cc1ccc(S(=O)(=O)NC(N)=NCCc2ccc(Cl)cc2)cc1C

>  <UNIT TAG>
%

>  <inhibition>
15.4

$$$$
>  <COMPOUND>
COC(=O)c1cc(-c2ccccc2)n[nH]1

>  <UNIT TAG>
%

>  <inhibition>
7.7

$$$$
>  <COMPOUND>
Cc1ccc(-n2nc3ccc(N)cc3n2)cc1

>  <UNIT TAG>
%

>  <inhibition>
38.7

$$$$
>  <COMPOUND>
COc1cccc(C(c2sc3nc(C)nn3c2O)N2CCC3(CC2)OCCO3)c1 (stereo unspecified)

>  <UNIT TAG>
%

>  <inhibition>
5.1

$$$$
>  <COMPOUND>
C/C(=C\C(=O)Nc1nccs1)c1ccccc1

>  <UNIT TAG>
%

>  <inhibition>
9.8

$$$$

Now take the following compound into account.
Hey, Mannose-6-phosphate isomerase (Homo sapiens) (UniProt P34949) data for CCOC(=O)c1cccc(NC(=O)CSc2nnnn2C)c1 : inhibition came out at -7.4

Ref: PubChem BioAssay AID1209
